assay: Stability of analytes in rat plasma (auto-sampler, freeze-thaw, room temperature, long-term)
details: 100 ng/mL, room temperature 24 h
outcome-measure: Room temperature for 24 h Accuracy (%)
Please make sure the unit comes right after the number.

// solved cases for Room temperature for 24 h Accuracy (%) follow
| molecule | Room temperature for 24 h Accuracy (%) |
| --- | --- |
| O=C(O)[C@H]1O[C@@H](Oc2cc(O)c3c(=O)cc(-c4ccc(O)cc4)oc3c2)[C@H](O)[C@@H](O)[C@@H]1O [apigenin-7-O-glucuronide] | 90.4% |
| COC(=O)C1=CO[C@@H](O[C@@H]2O[C@H](CO)[C@@H](O)[C@H](O)[C@H]2O)[C@H]2[C@@H]1C(=O)C[C@@H]2C [verbenalin] | 91.2% |
| O=c1c(O[C@@H]2O[C@H](CO)[C@H](O)[C@H](O)[C@H]2O)c(-c2ccc(O)c(O)c2)oc2cc(O)cc(O)c12 [hyperoside] | 95.4% |
| COc1ccc(/C=C/C(=O)O)cc1O [isoferulic acid] | 87.5% |
| COc1ccc(-c2coc3cc(O[C@@H]4O[C@H](CO)[C@@H](O)[C@H](O)[C@H]4O)ccc3c2=O)cc1 [ononin] | 86.9% |

Problem: Suppose we examine the molecule COc1c2c(cc3oc(CO)cc(=O)c13)O[C@H](C(C)(C)O)C2 [cimifugin] ; what Room temperature for 24 h Accuracy (%) value has been reported?
Result: 98.0%

Problem: Also, O=C(/C=C/c1ccc(O[C@@H]2O[C@H](CO)[C@@H](O)[C@H](O)[C@H]2O)cc1)c1ccc(O)cc1O [isoliquiritin] please.
Result: 96.6%

Problem: And what about the molecule C[C@@]12C[C@@]3(O)O[C@@H](O1)[C@]1(COC(=O)c4ccccc4)[C@H]3C[C@@]12O[C@@H]1O[C@H](CO)[C@@H](O)[C@H](O)[C@H]1O [paeoniflorin] ?
Result: 86.8%

Problem: Continue with COc1cc(/C=C/C(=O)O)ccc1O [ferulic acid]
Result: 86.7%

Problem: Now try CC(C)(O[C@@H]1O[C@H](CO)[C@@H](O)[C@H](O)[C@H]1O)[C@@H]1CC[C@](O)(CO)[C@H]2CC(=O)[C@@](C)(O)[C@@H]2C1 [atractyloside A] .
Result: 104.0%

Problem: # iterate: O=c1cc(-c2ccc(O)cc2)oc2c([C@@H]3O[C@H](CO)[C@@H](O)[C@H](O)[C@H]3O)c(O)cc(O)c12 [vitexin]
Result: 88.3%

Problem: Ok, now O=C(O)c1ccc(O)c(O)c1 [protocatechuic acid]
Result: 106.0%

Problem: // next record C[C@@H]1O[C@@H](Oc2c(-c3ccc(O)c(O)c3)oc3cc(O)cc(O)c3c2=O)[C@H](O)[C@H](O)[C@H]1O [quercitrin]
Result: 99.6%

Problem: Then this molecule: O=C1C[C@@H](c2ccc(O[C@@H]3O[C@H](CO)[C@@H](O)[C@H](O)[C@H]3O)cc2)Oc2cc(O)ccc21 [liquiritin]
Result: 90.6%

Problem: Then this molecule: O=C(/C=C/c1ccc(O)c(O)c1)O[C@@H]1C[C@](O)(C(=O)O)C[C@@H](O)[C@H]1O [chlorogenic acid]
Result: 105.0%

====

assay: Stability of analytes in rat plasma (auto-sampler, freeze-thaw, room temperature, long-term)
details: 100 ng/mL, autosampler 24 h
outcome-measure: Autosampler for 24 h Accuracy (%)
Supply the numeric figure in %, leaving out any unit text.

# count of solved cases: 3
| molecule | value-units | Autosampler for 24 h Accuracy (%) |
| --- | --- | --- |
| C[C@@H]1O[C@@H](Oc2c(-c3ccc(O)c(O)c3)oc3cc(O)cc(O)c3c2=O)[C@H](O)[C@H](O)[C@H]1O | % | 98.3 |
| O=c1c(O[C@@H]2O[C@H](CO)[C@H](O)[C@H](O)[C@H]2O)c(-c2ccc(O)c(O)c2)oc2cc(O)cc(O)c12 [hyperoside] | % | 90.5 |
| O=c1cc(-c2ccc(O)cc2)oc2c([C@@H]3O[C@H](CO)[C@@H](O)[C@H](O)[C@H]3O)c(O)cc(O)c12 | % | 93.2 |

Problem: I'd like to know its Autosampler for 24 h Accuracy (%). The molecule in question is COc1cc(/C=C/C(=O)O)ccc1O
Result: 91.5

====

assay: Pharmacokinetic study in rat plasma after oral administration of QJYQ (UHPLC-sMRM)
Format: in vivo, Sprague-Dawley rats
details: rat, in vivo, po, 3.15 g/kg
outcome-measure: AUC(0-∞) (ng·h/mL)
Give your result in ng·h/mL as a bare value.

| compound | outcome-measure | meas-value |
| --- | --- | --- |
| COc1cc(/C=C/C(=O)O)cc(OC)c1O | AUC(0-∞) | 86.99 |
| O=C(O)[C@H]1O[C@@H](Oc2cc(O)c3c(=O)cc(-c4ccc(O)cc4)oc3c2)[C@H](O)[C@@H](O)[C@@H]1O [apigenin-7-O-glucuronide] | AUC(0-∞) | 15028.42 |
| COc1c(O[C@@H]2O[C@H](C(=O)O)[C@@H](O)[C@H](O)[C@H]2O)cc(O)c2c(=O)cc(-c3ccccc3)oc12 [wogonoside] | AUC(0-∞) | 73104.07 |

Moving on to another compound below.
Problem: I have this compound here, COC(=O)C1=CO[C@@H](O[C@@H]2O[C@H](CO)[C@@H](O)[C@H](O)[C@H]2O)[C@H]2[C@@H]1C(=O)C[C@@H]2C , and I need its recorded AUC(0-∞).
Result: 669.34

====

assay: Stability of analytes in rat plasma (auto-sampler, freeze-thaw, room temperature, long-term)
details: 1.56 ng/mL, room temperature 24 h
outcome-measure: Room temperature for 24 h Accuracy (%)
Reply with just the number (in %).

| smiles-text | value-units | Room temperature for 24 h Accuracy (%) |
| --- | --- | --- |
| C[C@@H]1O[C@@H](Oc2c(-c3ccc(O)c(O)c3)oc3cc(O)cc(O)c3c2=O)[C@H](O)[C@H](O)[C@H]1O | % | 85.2 |

Problem: Record request: Room temperature for 24 h Accuracy (%) value, item O=C(O)C=Cc1ccc(O)cc1
Result: 82.7

Problem: # repeat for O=c1cc(-c2ccc(O)cc2)oc2c([C@@H]3O[C@H](CO)[C@@H](O)[C@H](O)[C@H]3O)c(O)cc(O)c12
Result: 92.0

Problem: What about COc1ccc(-c2coc3cc(O[C@@H]4O[C@H](CO)[C@@H](O)[C@H](O)[C@H]4O)ccc3c2=O)cc1 ?
Result: 98.6

====

assay: Stability of analytes in rat plasma (auto-sampler, freeze-thaw, room temperature, long-term)
details: 50 ng/mL, −80°C 1 month
outcome-measure: −80°C for 1month Accuracy (%)
Give the number; % is assumed, so skip it.

Field: example entries. Status: answers known.
| compound | outcome-measure | meas-value |
| --- | --- | --- |
| COc1ccc([C@@H]2CC(=O)c3c(O)cc(O[C@@H]4O[C@H](CO[C@@H]5O[C@@H](C)[C@H](O)[C@@H](O)[C@H]5O)[C@@H](O)[C@H](O)[C@H]4O)cc3O2)cc1O [hesperidin] | −80°C for 1month Accuracy (%) | 85.8 |
| CC(C)=CCC[C@](C)(O)[C@H]1CC[C@]2(C)[C@@H]1[C@H](O)C[C@@H]1[C@@]3(C)CC[C@H](O)C(C)(C)[C@@H]3[C@@H](O[C@@H]3O[C@H](CO)[C@@H](O)[C@H](O)[C@H]3O)C[C@]12C [ginsenoside Rh1] | −80°C for 1month Accuracy (%) | 107.0 |

Problem: Dear colleague, I am looking for the recorded −80°C for 1month Accuracy (%) of the following compound: CC(C)(O[C@@H]1O[C@H](CO)[C@@H](O)[C@H](O)[C@H]1O)[C@@H]1CC[C@](O)(CO)[C@H]2CC(=O)[C@@](C)(O)[C@@H]2C1 [atractyloside A]
Result: 89.7

Problem: Field entry: C[C@@]12C[C@@]3(O)O[C@@H](O1)[C@]1(COC(=O)c4ccccc4)[C@H]3C[C@@]12O[C@@H]1O[C@H](CO)[C@@H](O)[C@H](O)[C@H]1O [paeoniflorin]
Result: 96.4

Problem: Same lookup for COc1ccc(/C=C/C(=O)O)cc1O [isoferulic acid] , please.
Result: 90.8

Problem: // query: O=C1C[C@@H](c2ccc(O)cc2)Oc2cc(O)cc(O)c21 [naringenin]
Result: 98.2

====

assay: Stability of analytes in rat plasma (auto-sampler, freeze-thaw, room temperature, long-term)
details: 500 ng/mL, three freeze-thaw cycles
Catalogue of compounds with associated Freeze thaw cycles Accuracy (%)
Your answer is read as %, so omit the unit and give the number.

| compound | meas-value |
| --- | --- |
| O=C(O)c1ccc(O)c(O)c1 | 89.0 |

API: the following record is the query input.
Problem: # query: Freeze thaw cycles Accuracy (%) of entry O=C(/C=C/c1ccc(O)c(O)c1)O[C@H]1[C@H](O)C[C@](O)(C(=O)O)C[C@H]1O
Result: 98.7
